# TGI per entry
Test system: SNB-75 CNS
test_name: NCI tumour cell line growth inhibition, 48 h

smiles | modifier_sign | TGI [µM]
COc1ccc(N/N=C/C2=CC(C)(C)C(C#N)(C#N)C(O)=C2C#N)cc1 | > | 100
CC1(C)CCc2c(c(N=Nc3ccccc3F)c3ccccc3c2O)O1 | = | 53.3
O=S(=O)(O)c1cc(S(=O)(=O)O)c2c(N=Nc3ccc(S(=O)(=O)O)c4ccccc34)c(O)ccc2c1 | > | 100
O=C(Nc1cccc(C(F)(F)F)c1)c1ccc(NC2=C(Cl)C(=O)N(Cc3ccccc3)C2=O)cc1 | = | 51.4
COc1ccc2c(=O)c3c([nH]c2c1)OCC3=O | > | 100

====

Tested on: NCI-H522 lung
test_name: NCI tumour cell line growth inhibition, 48 h
Where a SMILES comes first, the peptide text is derived from it. The star is where a group is joined. Cbz = O=C(OCc1ccccc1)*

molecule | TGI
Cc1cn(C2CC(N=[N+]=[N-])C(CO)O2)c(=O)n(CCCCBr)c1=O (stereo unspecified) | > 100 µM
CCc1ccc(Cc2ccc(CC)c(NC(=O)C(=O)C3NC(=S)NC3=O)c2CC)c(CC)c1NC(=O)C(=O)C1NC(=S)NC1=O (stereo unspecified) | > 100 µM
Cc1cc(=O)oc2cc3oc(N(C)c4ccccc4)nc(=O)c3cc12 | > 100 µM
O=S(=O)(O)n1ccnc1 (tested in a mixture with another compound) | > 100 µM
CO/C=C(\Br)c1ccc2c(c1)OCO2 | > 100 µM
CC(C)(CCl)NC(=O)c1cccc(C(=O)NC(C)(C)CCl)n1 | > 100 µM
Nc1ccn(CCOC(c2ccccc2)P(=O)(O)O)c(=O)n1 (stereo unspecified) | > 100 µM
O=c1[nH]nc(CNc2ccc(Cl)cc2Cl)c2ccccc12 | 41.7 µM
Cc1ccc2nc(CN(CCO)CCO)cc(=O)n2c1 | > 100 µM
O=C1NC(=S)NC(=O)C1=CC1CC1 | > 100 µM
CC(=O)C1C(=O)C(C(C)=O)C2C3C=CC(C3)C12 (stereo unspecified) | > 100 µM
C[C@]12CCc3nonc3C1CC[C@@H]1C2CC[C@@]2(C)C1CC[C@@H]2O (stereo partly specified) | > 100 µM
CCOC(=O)c1c2c(n3ccc(NC(=O)CCN4CCCCC4)cc13)C(=O)c1ncccc1C2=O | 1.72 µM
c1ccc(SCCc2ccncc2)cc1 | > 100 µM
COC(=O)/C(=N\NC(N)=O)C(C#N)c1ccccc1 (stereo unspecified) | > 100 µM
CCc1cccc(NC(=O)Nc2ccc(Oc3ccc4nc(NC(=O)OC)[nH]c4c3)cc2)c1 | 14.8 µM
Cc1nc(-n2nc(-c3ccccc3)cc2-c2ccccc2)sc1C(=O)/C=C/c1ccc([N+](=O)[O-])cc1 | 66.1 µM
COC(=O)C(CC(C)C)NC(=O)C(CCCN=C(N)N)NC(=O)OCc1ccccc1 (stereo not drawn) (Cbz-Arg-Leu-OMe; configuration not given here) | > 100 µM
CC1SC2=NC3=C(c4ccccc4C3=O)C(c3ccccc3Cl)N2C1=O (stereo unspecified) | 96.3 µM
Cc1nc(C)c(N2CCN(S(N)(=O)=O)CC2)c(=O)[nH]1 | > 100 µM
CC1=C2[C@@H](CC1)[C@]1(C)O[C@@](C(C)C)(C[C@H]1OC(=O)CO)[C@H]2OC(=O)CCCc1ccccc1 | 24.6 µM

====

System: A498 renal
test_name: NCI tumour cell line growth inhibition, 48 h; in the data active = GI50 below about 0.43 µM; inactive = the rest
Labels: T for active, F for inactive

smiles | qualitative_label
O=C(Nc1ccccc1Cl)c1ccc(NC2=C(Cl)C(=O)N(C3CCCCC3)C2=O)cc1 | F
CC[O-].CC[O-].O=C([CH-]C(=O)c1ccccc1)CCCCCCC(=O)[CH-]C(=O)c1ccccc1.[Ti+4] | F
[Co].[O-]c1cccnc1C=Nc1ccccc1.[OH3+] | F
CCc1cccc(NC(=O)Nc2ccc(Oc3ccc4nc(NC(=O)OC)[nH]c4c3)cc2)c1 | F
COc1ccc(-c2cc(-c3ccc(OC)cc3)nc(NCCCNc3ccnc4cc(Cl)ccc34)n2)cc1 | F
O=C1c2ccccc2C(=O)c2c1oc1c2c(=O)[nH]c2ccc(Cl)cc21 | T
O=C1c2cc3c(cc2-c2c1c1ccc(F)cc1c(=O)n2C[C@H](O)[C@H](O)[C@H](O)CO)OCO3 | T
CCN(CC)CCn1c(=O)c2cc(OC)c(OC)cc2c2ccc3cc4c(cc3c21)OCO4 | T
O=C1/C(=C/c2ccc(F)cc2)CN(C(=O)C(Cl)Cl)C/C1=C\c1ccc(F)cc1 | T

====

System: UO-31 renal
test_name: NCI tumour cell line growth inhibition, 48 h; in the data active = GI50 below about 0.43 µM; inactive = the rest
Labels: active, inactive

molecule | assay_target | qualitative_label
COc1ccc(-c2cc(-c3ccc(OC)cc3)nc(NCCCNc3ccnc4cc(Cl)ccc34)n2)cc1 | UO-31 renal | inactive
CCc1cccc(NC(=O)Nc2ccc(Oc3ccc4nc(NC(=O)OC)[nH]c4c3)cc2)c1 | UO-31 renal | inactive
COc1cc2c(cc1O)c(=O)n(CCN(C)C)c1c3cc4c(cc3ncc21)OCO4 | UO-31 renal | active
Cc1c[nH]c(=O)n(Cc2nnc(CCC(=O)c3nc4ccccc4[nH]3)o2)c1=O | UO-31 renal | inactive
COc1ccc2nc3c(cc2c1)C(=O)CC(c1ccccc1)C3 (stereo not drawn) | UO-31 renal | inactive
CCCCC(OC(=O)c1ccc(N)cc1)C(=O)Nc1nc(CC(=O)OCC)cs1 (stereo not drawn) | UO-31 renal | inactive
O=C1/C(=C/c2ccc(F)cc2)CN(C(=O)C(Cl)Cl)C/C1=C\c1ccc(F)cc1 | UO-31 renal | active
CCN1C(=O)N(CC)C2C1NN=c1s/c(=C\c3ccc(C(F)(F)F)cc3)c(=O)n12 (stereo not drawn) | UO-31 renal | inactive
CCC[CH2][Sn]1([CH2]CCC)[O]CC[S]1 | UO-31 renal | inactive
CCCS(=O)(=O)Nc1cccc(Nc2ncnc3cc(NC(=O)CCl)ccc23)c1Cl | UO-31 renal | inactive
[Co].[O-]c1cccnc1C=Nc1ccccc1.[OH3+] | UO-31 renal | inactive
O=C(CCCC(=O)N/N=C/c1cc(Cl)ccc1O)N/N=C\c1cc(Cl)ccc1O | UO-31 renal | inactive
COc1ccc(C2CC(c3ccc(OC)cc3O)=NN2c2ccc(S(N)(=O)=O)cc2)cc1 (stereo not drawn) | UO-31 renal | inactive
O=C(c1ccccc1)C1OC1C(=O)c1ccccc1 (stereo not drawn) | UO-31 renal | inactive
Cc1ccc(-c2nc(/C=N/Nc3cc(C)nc4ccc(Br)cc34)c(C)o2)cc1 | UO-31 renal | inactive
O=c1oc2ccc(Cl)cc2c(=O)n1-c1ccc(F)cc1F | UO-31 renal | inactive
O=C1c2ccccc2C(=O)c2c1oc1c2c(=O)[nH]c2ccc(Cl)cc21 | UO-31 renal | active
CN[C@@H](Cc1cccc2ccccc12)C(=O)N[C@@H](CC(C)C)B(O)O | UO-31 renal | active

====

Tested on: HCT-15 colon
test_name: NCI tumour cell line growth inhibition, 48 h
# TGI per entry

compound | TGI
O=C1c2cc3c(cc2-c2c1c1ccc(F)cc1c(=O)n2C[C@H](O)[C@H](O)[C@H](O)CO)OCO3 | 0.724 µM
O=C1/C(=C/C=C/c2ccccc2)N=C(c2ccccc2)N1c1ccc(S(=O)(=O)Nc2nccs2)cc1 | > 100 µM
Cc1nc(C)c(N2CCN(S(N)(=O)=O)CC2)c(=O)[nH]1 | > 100 µM
O=C(CC1(O)C(=O)Nc2ccc([N+](=O)[O-])cc21)c1ccncc1 (stereo not given) | > 100 µM
N#Cc1ccccc1NC(=O)C(=O)C(C(=O)c1ccncc1)C1OC(=O)c2ccccc21 (stereo not given) | > 100 µM
O=[N+]([O-])c1cc(I)cc(/C=N/NS(=O)(=O)c2ccc(Cl)cc2)c1O | 38.7 µM
CCOc1ccccc1Nc1ccc(N)cc1S(=O)(=O)O | > 100 µM
COc1ccc(C[C@]23CCC(=O)N2CCc2cc(OC)c(O)cc23)cc1O | > 100 µM
O=c1oc2ccc(Cl)cc2c(=O)n1-c1ccc(F)cc1F | 13.5 µM
Cn1c2ccccc2c2c3c(c4c5ccccc5n(C5OC(CO)C(O)C(O)C5O)c4c21)C(=O)OC3=O (stereo not given) | > 100 µM

====

Test system: KM12 colon
test_name: NCI tumour cell line growth inhibition, 48 h
Peptide text beside a SMILES is read from it. * marks the point of attachment. X34 = O=C(c1ccc(-c2ccc(Cl)cc2Cl)o1)*

compound | TGI
COc1cc2c(/C=C3/C(=O)Nc4ccc(O)cc43)c(Cl)n(Cc3cc(OC)c(OC)c(OC)c3)c2cc1C | > 30.5 µM
COc1nc2ccc(CNc3ccc(C(=O)NC(CCC(=O)O)C(=O)O)cc3)cc2nc1OC (stereo not drawn) | > 100 µM
C1=CCC[C@@H]2CN3CCCC/C=C\CCCC[C@H]4C[C@H](CN(CCCCCCCC1)C4)[C@H]2CC3 | 15.6 µM
CC12C3CC4C5CC(C(C53)[C@@H]1NCc1ccccc1)C42 (stereo partly drawn) | > 100 µM
CCOC(=O)Nc1ccc2c(c1)C(=O)N(CC)c1ccccc1O2 | > 100 µM
O=S(=O)(O)n1ccnc1 (tested in a mixture with another compound) | > 100 µM
COc1ccc(-c2cc(=O)c3cc(Cl)ccc3[nH]2)cc1 | > 100 µM
CCCCc1n(Cc2ccc3ccccc3n2)cc[n+]1Cc1ccc2ccccc2n1 | 6.19 µM
CCOc1cc(C2SCC(=O)N2c2ccc3c(c2)Oc2c(Cl)c4c(c(Cl)c2=N3)Oc2cc(N3C(=O)CSC3c3ccc(O)c(OCC)c3)ccc2N=4)ccc1O (stereo not drawn) | > 100 µM
O=S1(=O)c2cc(S(=O)(=O)n3ccnc3)ccc2NC2=NCCCN21 | 89.5 µM
CCc1cccc(C(C)CC)c1NC(=O)C(=O)Cc1nc2ccccc2o1 (stereo not drawn) | > 50 µM
O=C1CCCCN1 | > 1120 µM
COC(=O)C(CC(C)C)NC(=O)C(Cc1ccccc1)NC(=O)C1CCCN1C(=O)C(CO)NC(=O)c1ccc(-c2ccc(Cl)cc2Cl)o1 (stereo not drawn) (X34-SPFL-OMe; configuration not given here) | > 100 µM
C/C(=C\C(C[C@](C)(O)C(O)CCC#C[Si](C)(C)C)S(=O)(=O)c1ccccc1)CC/C=C/CO[Si](C)(C)C(C)(C)C (stereo partly drawn) | 32.6 µM
c1ccc(SCCc2ccncc2)cc1 | > 100 µM
COc1cc(/C=C2\NC(=O)C3Cc4c(OC)c(C)c(OC)c(OC)c4C2N3C)c(OC)c(C)c1OC (stereo not drawn) | > 100 µM
CC(=O)OC1=C2CC[C@@H]3C(CC[C@@]4(C)C3CC[C@@H]4OC(C)=O)[C@@]2(C)CC(C#N)C1=O (stereo partly drawn) | > 100 µM
O=C1/C(=C/C=C/c2ccccc2)N=C(c2ccccc2)N1c1ccc(S(=O)(=O)Nc2nccs2)cc1 | > 100 µM
